From: patent US7807678B2

# system under test: MC4-R (Homo sapiens, UniProt P32245)
# Sequence (P32245 whole entry): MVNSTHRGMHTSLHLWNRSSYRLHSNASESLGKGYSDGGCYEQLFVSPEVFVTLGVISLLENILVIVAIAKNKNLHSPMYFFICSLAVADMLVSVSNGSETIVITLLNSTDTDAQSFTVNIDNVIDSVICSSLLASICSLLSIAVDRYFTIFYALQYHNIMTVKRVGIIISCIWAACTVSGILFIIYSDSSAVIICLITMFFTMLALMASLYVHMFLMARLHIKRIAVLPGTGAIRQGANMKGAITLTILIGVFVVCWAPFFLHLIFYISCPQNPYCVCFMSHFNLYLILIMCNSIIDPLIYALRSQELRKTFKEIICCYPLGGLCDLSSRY
# assay procedure: Ki determination by the method of Example 4, MC4-R
# Assay type: binding
# Design: expressed in transfected cells; host or cells: HEK-293
# condition summary: read-out: Ki (nM) MC4-R
metric: Ki (nM)

I. N=C(N)NCCC[C@H]1C(=O)N2C(CC[C@@H]2COc2ccc3ccccc3c2)N1C(=O)[C@@H](Cc1ccccc1Cl)NC(=O)[C@@H]1C[C@@H](OCc2ccccc2)CN1 (some centres unmarked) [Example 100]
II. N=C(N)NCCCC1C(=O)N2C(COc3ccc4ccccc4c3)CCC2N1C(=O)C(Cc1ccccc1)NC(=O)C(N)Cc1cnc[nH]1 (centres unmarked) [Example 97]
Task: Given I and given II , which shows the smaller recorded Ki? Please indicate the selected item by its label.
Output: I

P. NC(COCc1ccccc1)C(=O)NC(Cc1ccc(Cl)cc1Cl)C(=O)N1CCN(CCc2ccc3ccccc3c2)C(=O)C1CCCNC1=NCCN1 (centres unmarked) [Example 48]
Q. NCCCC[C@H]1C(=O)N(CCc2ccc3ccccc3c2)CCN1C(=O)[C@@H](Cc1ccc(Cl)cc1Cl)NC(=O)[C@@H]1CC[C@H](c2ccccc2)N1 [Example 26]
Task: Given the listed records, identify the one among P and Q with higher Ki. // respond with label for picked entry
Output: Q

A. N=C(N)NCCC[C@H]1C(=O)N2C(CC[C@@H]2COc2ccc3ccccc3c2)N1C(=O)[C@@H](Cc1ccc(Cl)cc1Cl)NC(=O)[C@@H]1Cc2ccccc2CN1 (some centres unmarked) [Example 112]
B. N=C(N)NCCCC1C(=O)N(CCc2c[nH]c3ccccc23)CCN1C(=O)C(Cc1ccc(Cl)cc1)NC(=O)C1Cc2ccccc2CN1 (centres unmarked) [Example 14]
Task: Which shows the larger Ki value: A or B ? // caller expects the label of the chosen entry
Output: B
(B: 2 nM, A: 1 nM)

----------
# system under test: MC5-R (Homo sapiens, UniProt P33032)
# Sequence (P33032 whole entry): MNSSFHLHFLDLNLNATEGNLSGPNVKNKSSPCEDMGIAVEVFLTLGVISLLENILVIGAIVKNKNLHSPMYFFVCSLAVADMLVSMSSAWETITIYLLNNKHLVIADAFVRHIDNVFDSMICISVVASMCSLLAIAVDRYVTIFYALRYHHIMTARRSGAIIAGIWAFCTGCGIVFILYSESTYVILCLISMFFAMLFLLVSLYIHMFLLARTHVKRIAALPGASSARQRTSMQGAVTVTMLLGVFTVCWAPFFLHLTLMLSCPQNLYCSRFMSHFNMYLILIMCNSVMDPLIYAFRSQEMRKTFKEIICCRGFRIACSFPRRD
# assay procedure: Competitive inhibition binding assay, 125I-NDP-α-MSH, MC5-R
# Parameters: expressed in transfected cells
# condition summary: 1 μM compound; inhibition of 125I-NDP-α-MSH binding; mean of triplicates; results less than 0% reported as 0%
metric: Inhibition at 1 μM MC5-R (%)

molecule: NCCCNC(=O)[C@@H]1C[C@@H](OCc2ccccc2)CN1C(=O)[C@@H](Cc1ccccc1)NC(=O)[C@H](Cc1cnc[nH]1)NC(=O)c1ccccc1
endpoint unit: %
Inhibition at 1 μM MC5-R: 10

molecule: N=C(N)NCCC[C@H]1C(=O)N(CCc2c[nH]c3ccccc23)CCN1C(=O)[C@@H](Cc1ccc(Cl)cc1)NC(=O)[C@@H](N)COCc1ccc(Cl)cc1
endpoint unit: %
Inhibition at 1 μM MC5-R: 90

molecule: NCCCC[C@H]1C(=O)N2C(CC[C@@H]2COc2ccc3c(c2)CCCC3)N1C(=O)[C@@H](Cc1ccc(Cl)cc1)NC(=O)[C@@H]1Cc2ccccc2CN1 (some centres unmarked)
endpoint unit: %
Inhibition at 1 μM MC5-R: 66

molecule: NCCCCC1C(=O)N2C(COc3ccccc3)CCC2N1C(=O)C(N)Cc1ccccc1Cl (centres unmarked)
endpoint unit: %
Inhibition at 1 μM MC5-R: 0

1. NCCC[C@H]1C(=O)N(CCc2ccc3ccccc3c2)CCN1C(=O)[C@H](N)Cc1ccc(Cl)cc1Cl
2. CC(=O)NC(Cc1cnc[nH]1)C(=O)NC(Cc1ccccc1)C(=O)N1CC(OCc2ccccc2)CC1C(=O)NCCCN (centres unmarked)
Task: Hey, which is lower on measured Inhibition at 1 μM MC5-R, 1 or 2 ? Reply with the label of the item you choose.
Output: 1

1. CC(O)C(N)C(=O)NC(Cc1ccccc1)C(=O)N1CC(OCc2ccccc2)CC1C(=O)NCCCN (centres unmarked)
2. [2H]NC(Cc1cnc[nH]1)C(=O)NC(Cc1ccccc1)C(=O)N1C(CCCNC(=N)N)C(=O)N2C(COc3ccc4ccccc4c3)CCC21 (centres unmarked)
Task: # query: argmin of Inhibition at 1 μM MC5-R over 1 and 2 Write down the label of the entry you select.
Output: 1

A. Cc1ccc(CCN2CCN(C(=O)[C@H](N)Cc3ccc(Cl)cc3Cl)[C@@H](CCCNC(=N)N)C2=O)cc1
B. N[C@H](Cc1ccc(Cl)cc1Cl)C(=O)N1CCN(CCc2ccc3ccccc3c2)C(=O)[C@@H]1CCCn1cncn1
Task: Recorded Inhibition at 1 μM MC5-R values differ for A and B ; which one is higher? Answer by stating the label of the chosen item.
Output: A
